Target: recombinant human Meningioma Expressed Antigen 5 (MGEA5), also referred to as O-GlcNAcase (OGA) (Homo sapiens, UniProt O60502)
Construct: Full length OGA enzyme was purchased at OnGene (cat #TP322411); purchased OnGene (so in the source)
Sequence (O60502 whole entry): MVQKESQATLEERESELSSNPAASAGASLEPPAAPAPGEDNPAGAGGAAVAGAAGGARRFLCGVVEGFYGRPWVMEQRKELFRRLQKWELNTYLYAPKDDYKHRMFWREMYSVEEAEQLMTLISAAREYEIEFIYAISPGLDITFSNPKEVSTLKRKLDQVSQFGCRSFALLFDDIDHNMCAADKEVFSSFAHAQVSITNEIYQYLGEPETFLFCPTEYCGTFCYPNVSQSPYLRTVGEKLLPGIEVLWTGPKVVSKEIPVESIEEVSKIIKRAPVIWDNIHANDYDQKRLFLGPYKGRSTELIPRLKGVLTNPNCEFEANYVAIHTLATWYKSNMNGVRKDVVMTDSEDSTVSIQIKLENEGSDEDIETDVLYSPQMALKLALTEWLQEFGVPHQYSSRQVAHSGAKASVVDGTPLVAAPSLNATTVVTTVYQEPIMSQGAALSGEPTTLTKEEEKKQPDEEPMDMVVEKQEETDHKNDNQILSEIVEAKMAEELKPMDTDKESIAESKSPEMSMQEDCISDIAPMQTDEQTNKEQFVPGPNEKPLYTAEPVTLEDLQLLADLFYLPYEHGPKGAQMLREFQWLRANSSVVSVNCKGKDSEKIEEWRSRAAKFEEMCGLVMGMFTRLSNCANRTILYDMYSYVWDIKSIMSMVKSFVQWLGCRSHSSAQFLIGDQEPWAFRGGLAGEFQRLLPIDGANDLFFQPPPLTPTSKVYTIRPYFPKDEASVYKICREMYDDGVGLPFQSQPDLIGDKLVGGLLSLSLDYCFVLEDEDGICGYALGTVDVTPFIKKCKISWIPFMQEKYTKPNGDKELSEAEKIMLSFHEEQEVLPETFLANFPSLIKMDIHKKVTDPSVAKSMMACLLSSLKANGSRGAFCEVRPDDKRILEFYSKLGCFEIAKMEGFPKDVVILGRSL
Test: OGA biochemical assay: inhibition of hydrolysis of fluorescein mono-ß-D-N-Acetyl-Glucosamine (FM-GlcNAc), fluorescence readout
Conditions: FM-GlcNAc substrate, read-out: Enzymatic hOGA, pIC50 (converted)
Text: The assay is based on the inhibition of the hydrolysis of fluorescein mono-ß-D-N-Acetyl-Glucosamine (FM-GlcNAc) (Mariappa et al. 2015, Biochem J 470:255) by the recombinant human Meningioma Expressed Antigen 5 (MGEA5), also referred to as O-GlcNAcase (OGA). […] The fluorescence of the latter can be measured at excitation wavelength 485 nm and emission wavelength 538 nm. An increase in enzyme activity results in an increase in fluorescence signal. […]
log10 IC50 values by entry
Recorded Metric: log10 IC50 (log10 of the value in nM)

Compound	Val
CCCCn1ccc2c(Nc3c(C)cc(-c4cnn(C)c4)cc3C)nccc21 [Compound 54]	0.31
Cc1cncc(C(F)(F)F)c1Nc1nccc2c1ccn2CCC1CC1 [Compound 194]	0.89
Cc1cc(C(F)(F)F)cc(C)c1Nc1nccc2c1ccn2CC(F)(F)C(C)C [Compound 176]	0.19
Cc1cc(F)cc(F)c1Nc1nccc2c1ccn2CC(F)(F)C(C)C [Compound 186]	0.63
COCCn1ccc2c(Nc3c(Cl)cncc3Cl)nccc21 [Compound 28]	3.34
Cc1cc(OC(F)(F)F)cc(C)c1Nc1nccc2c1ccn2CC(F)(F)C(C)C [Compound 187]	0.25
CCCCn1ccc2c(Nc3c(C)cncc3C(F)(F)F)nccc21 [Compound 86]	1.34
Cc1ccnc(C(C)(C)F)c1Nc1nccc2c1ccn2CC(C)(F)F [Compound 205]	0.48
CCCCn1ccc2c(Nc3c(C)cc(C(=O)N(C)C)cc3C)nccc21 [Compound 61]	0.57
CCCCn1ccc2c(Nc3c(C)cc(CF)cc3C)nccc21 [Compound 101]	0.51
Cn1ccc(-n2ccc3c(Nc4c(Cl)cc(F)cc4Cl)nccc32)n1 [Compound 184]	1.90
CCCCn1ccc2c(Nc3c(C)cc(C(=O)OC)cc3C)nccc21 [Compound 64]	0.60
Fc1cc(Cl)c(Nc2nccc3c2ccn3-c2c[nH]cn2)c(Cl)c1 [Compound 190]	2.75
Cn1cnc(-n2ccc3c(Nc4c(Cl)cccc4Cl)nccc32)c1 [Compound 167]	1.23
CCCCn1ccc2c(Nc3c(C)cccc3C(C)C)nccc21 [Compound 67]	-0.05
Clc1cccc(Cl)c1Nc1nccc2c1ccn2CC1COC1 [Compound 35]	2.17
CCCCn1ccc2c(Nc3c(F)cncc3CC)nccc21 [Compound 44]	1.55
CCCCn1ccc2c(Nc3c(C)cc(N(C)C(C)=O)cc3C)nccc21 [Compound 102]	2.36
CCCCn1ccc2c(Nc3c(F)cncc3C3CC3)nccc21 [Compound 43]	1.38
Cc1ccnc(C)c1Nc1nccc2c1ccn2CC1CCO1 (single isomer, unassigned) [Compound 25b]	0.66

----------
Catalogue of Enzymatic hOGA; pIC50 readings, one per entry.
biological target: recombinant human Meningioma Expressed Antigen 5 (MGEA5), also referred to as O-GlcNAcase (OGA) (Homo sapiens, UniProt O60502); construct: Full length OGA enzyme was purchased at OnGene (cat #TP322411); purchased OnGene (so in the source); assay: OGA biochemical assay: inhibition of hydrolysis of fluorescein mono-ß-D-N-Acetyl-Glucosamine (FM-GlcNAc), fluorescence readout; conditions: FM-GlcNAc substrate

Compound	Enzymatic hOGA; pIC50
Cc1ccnc(C)c1Nc1nccc2c1ccn2CCC(C)(F)F	7.31
Cc1ccnc(C)c1Nc1nccc2c1ccn2CC(F)(F)C1CC1	8.84
Cc1cc(C(F)(F)F)cc(C(C)C)c1Nc1nccc2c1ccn2CC1CCO1 (centres unmarked)	8.58
CCC(C)Cn1ccc2c(Nc3c(Cl)cccc3Cl)nccc21.Cl (centres unmarked)	8.42
Cc1ccnc(C)c1Nc1nccc2c1ccn2CC(C)O (centres unmarked)	7.25

----------
log10(IC50) by entry:
Biological target: recombinant human Meningioma Expressed Antigen 5 (MGEA5), also referred to as O-GlcNAcase (OGA) (Homo sapiens)
Construct: Full length OGA enzyme was purchased at OnGene (cat #TP322411); purchased OnGene (so in the source)
Assay: OGA biochemical assay: inhibition of hydrolysis of fluorescein mono-ß-D-N-Acetyl-Glucosamine (FM-GlcNAc), fluorescence readout
Conditions: FM-GlcNAc substrate, read-out: Enzymatic hOGA, pIC50 (converted)
Description: The assay is based on the inhibition of the hydrolysis of fluorescein mono-ß-D-N-Acetyl-Glucosamine (FM-GlcNAc) (Mariappa et al. 2015, Biochem J 470:255) by the recombinant human Meningioma Expressed Antigen 5 (MGEA5), also referred to as O-GlcNAcase (OGA). […] The fluorescence of the latter can be measured at excitation wavelength 485 nm and emission wavelength 538 nm. An increase in enzyme activity results in an increase in fluorescence signal. […]
Recorded Metric: log10(IC50) (log10 of the value in nM)

Molecule	log10(IC50)
Cc1ccc(-n2ccc3c(Nc4c(Cl)cccc4Cl)nccc32)nc1	1.58
Cc1cncc(Cl)c1Nc1nccc2c1ccn2CC1COC1	3.15
CCCCn1ccc2c(Nc3c(C)cc(C)cc3C)nccc21	0.58
CCCCn1ccc2c(Nc3c(C)cncc3C(C)C)nccc21	0.46
Cc1cccc(S(C)(=O)=O)c1Nc1nccc2c1ccn2CC1CC(F)(F)C1	1.11
CCC(F)Cn1ccc2c(Nc3c(C)ccnc3C)nccc21 (stereo not shown)	0.51
CCn1ccc2c(Nc3c(C)cc(F)cc3C)nccc21	2.40
CC(C)C(F)(F)Cn1ccc2c(Nc3c(Cl)cccc3Cl)nccc21	0.18
Cc1ccnc(C(C)C)c1Nc1nccc2c1ccn2CC(F)(F)C1CC1	-0.01
Cc1cc(OC(F)F)nc(C)c1Nc1nccc2c1ccn2CC(F)(F)C(C)C	0.21
Cc1cc(-c2cnn(C)c2)cc(C)c1Nc1nccc2c1ccn2CC(F)(F)C(C)C	0.05
N#CCCCn1ccc2c(Nc3c(Cl)cccc3Cl)nccc21	1.10
CCCCn1ccc2c(Nc3c(Cl)cc4c(c3C)OCCO4)nccc21	0.47
CCCCn1ccc2c(Nc3c(C)ccc(C(=O)N4CCCC4)c3C)nccc21	0.23
CCCCn1cc(F)c2c(Nc3c(C)cncc3C)nccc21	2.25
N#Cc1ccc(-n2ccc3c(Nc4c(Cl)cccc4Cl)nccc32)nc1	1.68
Cn1ccnc1Cn1ccc2c(Nc3c(Cl)cccc3Cl)nccc21	2.75
CC(C)CCn1ccc2c(Nc3c(Cl)cccc3Cl)nccc21	0.56
Fc1cc(Cl)c(Nc2nccc3c2ccn3-c2ncco2)c(Cl)c1	2.49

----------
Target: recombinant human Meningioma Expressed Antigen 5 (MGEA5), also referred to as O-GlcNAcase (OGA) (Homo sapiens, UniProt O60502)
Construct: Full length OGA enzyme was purchased at OnGene (cat #TP322411); purchased OnGene (so in the source)
Experiment: OGA biochemical assay: inhibition of hydrolysis of fluorescein mono-ß-D-N-Acetyl-Glucosamine (FM-GlcNAc), fluorescence readout
Settings: FM-GlcNAc substrate, read-out: Enzymatic Emax (%)
Description: The assay is based on the inhibition of the hydrolysis of fluorescein mono-ß-D-N-Acetyl-Glucosamine (FM-GlcNAc) (Mariappa et al. 2015, Biochem J 470:255) by the recombinant human Meningioma Expressed Antigen 5 (MGEA5), also referred to as O-GlcNAcase (OGA). […] The fluorescence of the latter can be measured at excitation wavelength 485 nm and emission wavelength 538 nm. An increase in enzyme activity results in an increase in fluorescence signal. […]

Compound	Unit Label	Emax
Clc1cccc(Cl)c1Nc1nccc2c1ccn2Cc1ccon1 [Compound 172]	%	102
CCCCn1ccc2c(Nc3c(C)cncc3Cl)nccc21 [Compound 5]	%	101
Cc1cc(F)cc(Cl)c1Nc1nccc2c1ccn2CC(C)(F)F [Compound 151]	%	100
CCCCn1ccc2c(Nc3c(C)ccc(C(=O)N(C)C)c3C)nccc21 [Compound 59]	%	101
Cc1cc(OC(F)F)cc(Cl)c1Nc1nccc2c1ccn2CC1CC(F)(F)C1 [Compound 116]	%	104
CCCCn1ccc2c(Nc3c(C)ccc(C(=O)NC)c3C)nccc21 [Compound 58]	%	101
CCCCn1ccc2c(Nc3c(C)ccc4cccnc34)nccc21 [Compound 15]	%	101
CCCCn1cc(F)c2c(Nc3c(C)cncc3C)nccc21 [Compound 34]	%	99
CCCC(C)n1ccc2c(Nc3c(Cl)cccc3Cl)nccc21 (stereo not drawn) [Compound 39]	%	102
CCCCn1ccc2c(Nc3c(C)cc4c(c3C)C(=O)N(C)C4)nccc21 [Compound 45]	%	103
CCCCn1ccc2c(Nc3c(F)cncc3C3CC3)nccc21 [Compound 43]	%	99
Cc1ccnc(C)c1Nc1nccc2c1ccn2CC1CCOC1 (stereo not drawn) [Compound 140]	%	103
CCCCn1ccc2c(Nc3c(C)cc(C(=O)NC)cc3C)nccc21 [Compound 57]	%	102
Cc1ccnc(C)c1Nc1nccc2c1ccn2CC1(C)COC1 [Compound 22]	%	99
Cc1ccnc(OC(F)F)c1Nc1nccc2c1ccn2CC1CC(F)(F)C1 [Compound 114]	%	100
CC[C@@H](O)Cn1ccc2c(Nc3c(C)cc(F)cc3C)nccc21 [Compound 145a]	%	100
Fc1cc(Cl)c(Nc2nccc3c2ccn3Cc2cocn2)c(Cl)c1 [Compound 121]	%	103
Clc1cccc(Cl)c1Nc1nccc2c1ccn2Cc1ncco1 [Compound 169]	%	104
Cc1cccc(S(C)(=O)=O)c1Nc1nccc2c1ccn2CCC1CC1 [Compound 195]	%	102
CCC(C)(O)Cn1ccc2c(Nc3c(Cl)cc(F)cc3Cl)nccc21 (stereo not drawn) [Compound 106]	%	103
Cc1cc(-c2cnn(C)c2)cc(C)c1Nc1nccc2c1ccn2CC(F)(F)C(C)C [Compound 178]	%	101
CCCCn1ccc2c(Nc3c(C)cc(N(C)C(C)=O)cc3C)nccc21 [Compound 102]	%	99
Fc1cc(Cl)c(Nc2nccc3c2ccn3-c2ncco2)c(Cl)c1 [Compound 182]	%	97.8
CC(C)CCn1ccc2c(Nc3c(Cl)cccc3Cl)nccc21 [Compound 60]	%	102
CCCCn1ccc2c(Nc3c(C)cc(F)cc3C)nccc21 [Compound 73]	%	101
CCCCn1ccc2c(Nc3c(Cl)ccc4c3ccn4C)nccc21 [Compound 14]	%	103
Cc1cc(Cn2ccc3c(Nc4c(Cl)cc(F)cc4Cl)nccc32)no1 [Compound 158]	%	101
COCCn1ccc2c(Nc3c(Cl)cncc3Cl)nccc21 [Compound 28]	%	83
Fc1cc(Cl)c(Nc2nccc3c2ccn3CC2CCOC2)c(Cl)c1 (stereo not drawn) [Compound 139]	%	104
CCCCn1ccc2c(Nc3c(Cl)cncc3Cl)nccc21 [Compound 42]	%	100
Fc1cc(Cl)c(Nc2nccc3c2ccn3CC2CCCO2)c(Cl)c1 (stereo not drawn) [Compound 136]	%	101
COCCn1ccc2c(Nc3c(Cl)cccc3Cl)nccc21 [Compound 40]	%	102
Cc1ncnc(C(C)C)c1Nc1nccc2c1ccn2CCC(F)(F)F [Compound 192]	%	98.3
CCCCn1ccc2c(Nc3c(C)cncc3C(F)(F)F)nccc21 [Compound 86]	%	101
Cc1cncc(Cl)c1Nc1nccc2c1ccn2CC1COC1 [Compound 30]	%	93
Cc1ccnc(C)c1Nc1nccc2c1ccn2CC1CC1(F)F (stereo not drawn) [Compound 2]	%	99
CCCCn1ccc2c(Nc3c(C)cc(-c4cnn(C)c4)cc3C)nccc21 [Compound 54]	%	104
Cc1ccnc(C(C)C)c1Nc1nccc2c1ccn2CC1CCCO1 (stereo not drawn) [Compound 138]	%	103
Cc1ccnc(C(F)F)c1Nc1nccc2c1ccn2CC1CC(F)(F)C1 [Compound 115]	%	99.6

Data provenance is patent US20210277003A1.
